Entry source: ChEMBL document CHEMBL1961873

inhibition values, listed per item
- Study system: Non-receptor tyrosine-protein kinase TYK2 (Homo sapiens);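 note: values are mean percent inhibition of TYK2 kinase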
- Test parameters: at 1 µM
// return numeric value only (unit: %, not printed)

Study these solved cases before continuing.
1. NC(=O)Cc1ccccc1Oc1nccc(-c2c(-c3ccc(F)cc3)ncn2C2CCNCC2)n1 ... -2.45
2. O=C(Nc1n[nH]c2cc(-c3cc(F)ccc3F)ccc12)C1CC1 ... -2.35
3. NC(=O)c1cc(-c2ccc(F)cc2)cc(-c2ccncc2)c1N ... -2.58
4. Fc1ccc(-c2c(-c3ccncc3)nc3n2CCS3)cc1 ... 0.83
5. NS(=O)(=O)c1ccc(N/N=C2\C(=O)Nc3ccc(-c4cnco4)cc32)cc1 ... 9.13

Q: # inhibition lookup, item `CCS(=O)(=O)c1ccc(OC)c(Nc2ncc(-c3cccc(-c4ccccc4F)c3)o2)c1`
Ans: 1.31
